# measurement.protocol: Cell viability assay (MTT method)
# Assay type: cell-based
# test.parameters: human
outcome.measure: IC50

[ask] Provide measured IC50 value, entry: CCC(CC)COC(=O)[C@H](C)N[P@](=O)(OC[C@H]1O[C@@](C#N)(c2ccc3c(N)ncnn23)[C@H](O)[C@@H]1O)Oc1ccccc1 [Remdesivir, reference compound]
[reply] > 80 µM

---

Reported EC50 by item:
# System: SARS-CoV-2 (BA.2)
# measurement.protocol: microbe, parasite or virus in culture
# Format: cell-based
# test.parameters: Severe acute respiratory syndrome coronavirus 2, HEK-293T, 48 h; […]; mean from three parallel experiments; read-out: Inhibition of SARS-CoV-2 Viruses (EC50/μM)

Here is how some molecules turned out for EC50.
CC1=C(O)C(C)(C2C3C(=C(O)C=CC=CCO)C(=O)C(C)(C(=O)C3(C)O)C2C(=O)C=CC=CCO)OC1=O (centres unmarked) [Compound 3, 14, 20-dihydroxybislongiquinolide]: > 80 µM
CC=CC=CC(O)=C1C(=O)C2(C)C(=O)C(C)(O)C1C(C1(C)OC(=O)C(C)=C1O)C2C(=O)C=CC=CCO (centres unmarked) [Compound 2, 20-hydroxybislongiquinolide]: 29 µM
CCC(CC)COC(=O)[C@H](C)N[P@](=O)(OC[C@H]1O[C@@](C#N)(c2ccc3c(N)ncnn23)[C@H](O)[C@@H]1O)Oc1ccccc1 [Remdesivir, reference compound]: 1.2 µM
CC(=O)Oc1cc(/C=C/C=C/C(=O)O)oc(=O)c1C: > 80 µM

Turning now to a further record.
[ask] Provide measured EC50 value, entry: CC=CC=CC(=O)C1C(C2(C)OC(=O)C(C)=C2O)C2C(=C(O)C=CC=CCO)C(=O)C1(C)C(=O)C2(C)O (centres unmarked) [Compound 1, 14-hydroxybislongiquinolide]
[reply] > 80 µM
